The values you see were collected from PubChem BioAssay (NCATS).

Hi there, I'd appreciate the recorded max response for every entry that follows.
assay: qHTS Assay for Lipid Storage Modulators (AID 1519); conditions: Drosophila S3 cells, BODIPY lipid droplet/cell ratio, laser cytometry; measured here: cell count channel max response; cells loaded with oleic acid
Inconclusive results are not listed.

Could you tell me which max response is on file for "N#Cc1ccc(CN2CCC3(CC2)CCN(C(=O)c2ccco2)CC3)cc1" ?
20.4%

Could you tell me which max response is on file for "N[C@@H](CO)C(=O)NNCc1ccc(O)c(O)c1O" ?
-4.75%

Could you tell me which max response is on file for COc1ccc2c(c1OC)C(=O)OC2C1c2c(cc3c(c2OC)OCO3)CCN1C (stereo not given) ?
-33.3%

Could you tell me which max response is on file for "O=C(Nc1cccc(F)c1)N1CC[C@@]2(CCCN(C(=O)c3ccncc3)C2)C1" ?
15.8%

Could you tell me which max response is on file for "COCCNc1nc(-c2ccccc2C)nc2ccccc12" ?
3.47%

Could you tell me which max response is on file for "COc1ccc(C(=O)N2CCC3(CCN(Cc4ccccc4)CC3)CC2)cc1" ?
-0.0682%

Could you tell me which max response is on file for "O=c1ccc2ccc(O)cc2o1" ?
11.1%

Could you tell me which max response is on file for "CN(C)Cc1ccccc1-c1nc(N(C)Cc2ccco2)c2ccccc2n1" ?
17.4%

Could you tell me which max response is on file for "CS(=O)(=O)N1CCC2(CC1)CN(C(c1ccccc1)c1ccccc1)C2" ?
-5.26%

Could you tell me which max response is on file for "CC(=O)NCCNc1ncncc1-c1ccccc1C(F)(F)F" ?
-7.27%

Could you tell me which max response is on file for "COc1ccccc1CNc1ncncc1-c1ccccc1C" ?
-3.12%

Could you tell me which max response is on file for "O=C(c1cccc(F)c1)N1CCC2(CCCN(c3ccncc3)C2)CC1" ?
9.25%

Could you tell me which max response is on file for "COCCn1c(=O)c(-c2ccc(F)cc2)nc2cnc(Oc3ccc(OC)cc3)nc21" ?
-18.1%

Could you tell me which max response is on file for "O=C(c1ccncc1)N1CCC2(CCCN(Cc3nccs3)C2)CC1" ?
2.79%

Could you tell me which max response is on file for "COCC(=O)N1CCC2(CCCN(c3ccccc3)C2)CC1" ?
4.96%

Could you tell me which max response is on file for "CN(C)Cc1ccccc1-c1nccc(NCc2cccs2)n1" ?
4.85%

Could you tell me which max response is on file for "CCN1C(=O)N[C@@H](c2ccccc2)C1=O" ?
-10.1%

Could you tell me which max response is on file for "COc1ccccc1-c1nccc(NCc2ccccc2)n1" ?
3.72%

Could you tell me which max response is on file for "CNc1ncnc2ccc(-c3ccccc3OC)cc12" ?
0.392%

Could you tell me which max response is on file for "CC(C)CN1CCCC2(CCN(C(=O)c3cc(C(F)(F)F)cc(C(F)(F)F)c3)CC2)C1" ?
11.6%

Could you tell me which max response is on file for "COc1ccc(-n2c(=O)cnc3cnc(Nc4ccccc4)nc32)cc1" ?
8.28%

Could you tell me which max response is on file for "N#CCCn1c(=O)c(-c2ccc(Cl)cc2)nc2cnc(Oc3cccc(Cl)c3)nc21" ?
4.81%

Could you tell me which max response is on file for "CS(=O)(=O)N1CCC2(CCN(c3ccncc3)CC2)CC1" ?
7.45%

Could you tell me which max response is on file for "COc1c(O)cc2c(c1O)[C@@H]1O[C@@H](CO)[C@@H](O)[C@@H](O)[C@@H]1OC2=O" ?
-8.82%

Could you tell me which max response is on file for "CN1CC[C@@]2(CCCN(C(=O)c3cc(C(F)(F)F)cc(C(F)(F)F)c3)C2)C1" ?
-1.13%

Could you tell me which max response is on file for "COc1ccc(CNc2ncnc3ccc(-c4ccoc4)cc23)c(OC)c1" ?
19.6%

Could you tell me which max response is on file for "COc1cccc(Cn2c(=O)c(-c3ccccc3)nc3cnc(N4CCN(C)CC4)nc32)c1" ?
6.94%

Could you tell me which max response is on file for "N#Cc1ccc(CN2CC[C@@]3(CCCN(S(=O)(=O)c4ccccc4)C3)C2)cc1" ?
13.6%

Could you tell me which max response is on file for "O=c1c(CCc2ccccc2)nc2cnc(N3CCOCC3)nc2n1C[C@H]1CCCO1" ?
-5.26%

Could you tell me which max response is on file for "Cc1cccc(C)c1OC[C@H](C)N" ?
-4.34%

Could you tell me which max response is on file for "CN1CCN(c2ncncc2-c2ccccc2Cl)CC1" ?
8.31%

Could you tell me which max response is on file for "c1ccc(-c2ccc(N3CC[C@@]4(CCCNC4)C3)cc2)cc1" ?
9.08%

Could you tell me which max response is on file for "COc1ccc(NC(=O)N2CC[C@@]3(CCCN(C(=O)c4ccncc4)C3)C2)cc1" ?
0.213%

Could you tell me which max response is on file for "COc1ccc(/C=C/C(=O)O)cc1OC" ?
4.45%

Could you tell me which max response is on file for "COc1ccccc1OC[C@H](O)COC(N)=O" ?
-1.12%

---

assay: qHTS Assay for Lipid Storage Modulators (AID 1519); conditions: Drosophila S3 cells, BODIPY lipid droplet/cell ratio, laser cytometry; at 57.5 µM (top of the series); cells loaded with oleic acid; as to activity change, negative = inhibition: % is scaled to controls: 0 for no effect and ±100 for the full control effect
Results filed as inconclusive are left out.
Hi there, I'd appreciate the recorded activity change, negative = inhibition for every entry that follows.
Give just the numeric value; % need not be written.

Could you tell me which activity change, negative = inhibition is on file for "CS(=O)(=O)Nc1cccc(-c2nc(N3CCNCC3)c3ccccc3n2)c1" ?
5.5

Could you tell me which activity change, negative = inhibition is on file for "COC(=O)c1c(C)cc(OC(=O)c2c(C)cc(O)c(C=O)c2O)c(C)c1O" ?
-6.06

Could you tell me which activity change, negative = inhibition is on file for "COc1cccc(Cn2c(=O)c(-c3ccccc3)nc3cnc(N4CCN(C)CC4)nc32)c1" ?
-6.14

Could you tell me which activity change, negative = inhibition is on file for "COc1ccccc1CN1CCCC2(CCN(C(=O)c3ccco3)CC2)C1" ?
2.54

Could you tell me which activity change, negative = inhibition is on file for "COCCn1c(=O)c(-c2ccc(OC)cc2)nc2cnc(N3CCN(C)CC3)nc21" ?
6

Could you tell me which activity change, negative = inhibition is on file for "O=C(c1cc(C(F)(F)F)cc(C(F)(F)F)c1)N1CCC2(CCN(Cc3ccncc3)CC2)CC1" ?
3.65

Could you tell me which activity change, negative = inhibition is on file for "O=S(=O)(c1ccccc1)N1CCC2(CCN(Cc3ccccc3)CC2)CC1" ?
3.53

Could you tell me which activity change, negative = inhibition is on file for "N#Cc1cccc(NC(=O)N2CC[C@@]3(CCCN(C(=O)c4cnccn4)C3)C2)c1" ?
8.9

Could you tell me which activity change, negative = inhibition is on file for "CC[C@@]12CCCN3CCc4c(n(c5ccccc45)[C@](O)(C(=O)OC)C1)[C@H]32" ?
0.0973

Could you tell me which activity change, negative = inhibition is on file for "Cc1cccc(CNc2ccnc(-c3ccccc3CN(C)C)n2)c1" ?
3.61

Could you tell me which activity change, negative = inhibition is on file for "Cc1noc(C)c1-c1cncnc1N1CCN(C)CC1" ?
-1.64

Could you tell me which activity change, negative = inhibition is on file for "CN1CCN(c2ncncc2-c2ccoc2)CC1" ?
5.79

Could you tell me which activity change, negative = inhibition is on file for "CN(C)Cc1ccccc1-c1cc(NCc2ccccc2)ncn1" ?
4.72

Could you tell me which activity change, negative = inhibition is on file for "C=C(C)[C@H]1CC=C(C)C(=O)C1" ?
-4.73

Could you tell me which activity change, negative = inhibition is on file for "COc1ccc(NC(=O)N2CC[C@@]3(CCCN(C(C)=O)C3)C2)cc1" ?
5.28

Could you tell me which activity change, negative = inhibition is on file for "N#Cc1cccc(NC(=O)N2CC[C@@]3(CCCN(C(=O)c4ccco4)C3)C2)c1" ?
6.04

Could you tell me which activity change, negative = inhibition is on file for "COc1cccc(-c2ccc3ncnc(NCCN4CCOCC4)c3c2)c1" ?
-1.99

Could you tell me which activity change, negative = inhibition is on file for O=C(Cc1cccs1)NC1C(=O)N2C(C(=O)[O-])=C(C[n+]3ccccc3)CSC12 (stereo not given) ?
7.61

Could you tell me which activity change, negative = inhibition is on file for "FC(F)(F)c1ccccc1-c1cncnc1NCCN1CCOCC1" ?
-3.84

Could you tell me which activity change, negative = inhibition is on file for "CN1CCCC2(CCN(C(=O)c3cc(C(F)(F)F)cc(C(F)(F)F)c3)CC2)C1" ?
3.25

Could you tell me which activity change, negative = inhibition is on file for "O=C1C=C(O)c2ccccc2C1=O" ?
-2.81

Could you tell me which activity change, negative = inhibition is on file for "COc1ccc(NC(=O)N2CCCC3(CCN(C(=O)c4cc(C(F)(F)F)cc(C(F)(F)F)c4)CC3)C2)cc1" ?
6.29

Could you tell me which activity change, negative = inhibition is on file for "Cc1ccccc1-c1cc(Nc2ccc(F)cc2)ncn1" ?
9.27

Could you tell me which activity change, negative = inhibition is on file for "Cc1cccc(CNc2ccnc(-c3cccc(NS(C)(=O)=O)c3)n2)c1" ?
8.1

Could you tell me which activity change, negative = inhibition is on file for "CC(C)CN1CCC2(CC1)CCN(C(=O)c1ccncc1)CC2" ?
0.393

Could you tell me which activity change, negative = inhibition is on file for "COc1ccc(C(=O)N2CCC[C@@]3(CCN(c4ncccn4)C3)C2)cc1" ?
4.06

Could you tell me which activity change, negative = inhibition is on file for "c1ccc(Nc2ncnc3ccc(-c4cccnc4)cc23)cc1" ?
7.8

Could you tell me which activity change, negative = inhibition is on file for "COc1cccc(Cn2c(=O)c(CCc3ccccc3)nc3cnc(N4CCNCC4)nc32)c1" ?
3.32

Could you tell me which activity change, negative = inhibition is on file for "O=C(c1cccc(F)c1)N1CCC2(CCN(Cc3ccccc3)CC2)CC1" ?
2.97

Could you tell me which activity change, negative = inhibition is on file for "O=C(c1cc(C(F)(F)F)cc(C(F)(F)F)c1)N1CCC2(CCCN(Cc3ccccc3)C2)CC1" ?
-0.673
